- systemTested: BCL2A1/BID (Homo sapiens, UniProt Q16548)
- Sequence (Q16548 whole entry): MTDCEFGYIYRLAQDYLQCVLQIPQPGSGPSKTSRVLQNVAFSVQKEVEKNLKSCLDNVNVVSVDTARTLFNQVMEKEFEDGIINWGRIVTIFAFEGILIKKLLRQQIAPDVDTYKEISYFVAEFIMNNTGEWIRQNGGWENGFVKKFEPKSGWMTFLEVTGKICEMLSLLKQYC
- Sequence (P55957 whole entry, further chain): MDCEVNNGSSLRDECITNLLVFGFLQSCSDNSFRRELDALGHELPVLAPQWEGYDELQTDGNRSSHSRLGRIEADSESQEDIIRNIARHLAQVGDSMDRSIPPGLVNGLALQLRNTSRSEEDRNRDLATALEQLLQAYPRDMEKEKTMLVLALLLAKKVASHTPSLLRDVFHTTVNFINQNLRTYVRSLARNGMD
- assayMethodText: Binding affinity to Bfl-1/Bid (unknown origin) incubated for 3 hrs by fluorescence polarization-based binding assay
- Type: protein assay
pKi: −log10 of the molar value.
measureName: pKi

>>> df
                             moleculesmiles                              systemtested  measurename  endpointresult
0  O=C(CSc1nnc(-c2ccco2)c(-c2ccco2)n1)Nc1ccccc1  BCL2A1/BID (Homo sapiens, UniProt Q16548)          pKi            5.31

----------
- systemTested: BCL2/BID (Homo sapiens)
- Sequence (P10415 whole entry): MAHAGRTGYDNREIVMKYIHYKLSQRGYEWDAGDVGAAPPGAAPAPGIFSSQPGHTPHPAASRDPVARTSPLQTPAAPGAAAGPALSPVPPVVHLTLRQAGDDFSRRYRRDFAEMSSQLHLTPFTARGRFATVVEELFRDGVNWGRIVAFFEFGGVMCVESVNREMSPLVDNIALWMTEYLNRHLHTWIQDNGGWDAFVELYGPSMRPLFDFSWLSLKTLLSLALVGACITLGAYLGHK
- Sequence (P55957 whole entry, further chain): as the sequence (P55957 whole entry, further chain) above
- assayMethodText: Binding affinity to Bcl-2/Bid (unknown origin) by fluorescence polarization assay
- Assay type: protein assay
measureName: Ki (nM)

In [3]: df
Out[3]:
                             moleculesmiles  measurename  endpointresult
0  O=C(Cn1nnnc1-c1ccccc1Oc1ccc(Cl)cc1Cl)NNC(=S)Nc1ccc([N+](=O)[O-])cc1           Ki            2400
1  O=C(Cn1nnc(-c2ccccc2Oc2ccc(Cl)cc2Cl)n1)NNC(=S)Nc1ccc([N+](=O)[O-])cc1           Ki            1900
2  O=C(NCCNS(=O)(=O)c1sccc1-c1ccccc1Oc1ccc(O)c(O)c1)Nc1cc(C(F)(F)F)cc(C(F)(F)F)c1           Ki            1200
3  O=C(O)CSc1cc(NS(=O)(=O)c2cccc(Br)c2)c2ccccc2c1O           Ki           23800
